Test system: ATP;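 further: ATP exposure 15 min at 22 °C before imaging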
measurement-protocol: switch fluorescence ratio, 500 uM ATP over buffer (Cy3 cluster intensity, sum of 5 cycles each) (fold (ratio)); higher = stronger signal-on switching upon ATP binding; sequences stand for … in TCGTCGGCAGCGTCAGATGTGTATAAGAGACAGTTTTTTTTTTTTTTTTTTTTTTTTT…TC
condition-set: aptamer strand: ATP DNA aptamer (quencher-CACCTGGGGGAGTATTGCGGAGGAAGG + anchor), 100 nM annealed; ATP concentration: 500 uM
observation-type: switch fluorescence ratio

sequence-code | observation-type | obs-value
GGGTTGTGGG | switch fluorescence ratio | 1
TTATCCTGGT | switch fluorescence ratio | 0.975
AGGGTTGTAT | switch fluorescence ratio | 1
TTCGTCAGGA | switch fluorescence ratio | 0.978
ACAGTTAGGT | switch fluorescence ratio | 0.992

---

Test system: ATP;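 further: ATP exposure 15 min at 22 °C before imaging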
measurement-protocol: switch fluorescence ratio, 500 uM ATP over buffer (Cy3 cluster intensity, sum of 5 cycles each) (fold (ratio)); higher = stronger signal-on switching upon ATP binding; sequences stand for … in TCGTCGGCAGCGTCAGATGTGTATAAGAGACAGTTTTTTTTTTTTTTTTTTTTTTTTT…TC
condition-set: aptamer strand: ATP DNA aptamer (quencher-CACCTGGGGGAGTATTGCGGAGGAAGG + anchor), 100 nM annealed; ATP concentration: 500 uM
Property: switch fluorescence ratio; scope: individual sequences

sequence-code | switch fluorescence ratio
GGCCGTCGGA | 1.06
TTAAAATCAC | 1.09
AATTAAACGA | 1.04
TAGGTGAGTT | 1.04
GTCGGTACGG | 1
TCCGTGGGGG | 1.09
CTTATTTGGC | 1.03
CGAGTGAAAT | 1
AGGCTTTCCT | 1.05
CTGAGTATGG | 1.01
AATGTAGACG | 0.997
GGGATGACCT | 1.1
TGGGAGAGGT | 0.996
CGTGAAGGTG | 1.24
ATTTGGTATC | 0.997
CCCTATTTTT | 1.01
GGTTTTATGA | 1
GTTCCGGTCG | 1.07
TCAAAGGGCG | 0.99
TTTCCTTTTT | 1.15
AGTAATGAGG | 0.985
ATGGGTTCTG | 0.999
GACTTGAGGT | 1.03
GGTAACGACA | 1.02
ATTTCTTGGG | 0.997
TGATGTTCGA | 1
AAAACGCGCT | 0.965
CAGGGCGGAA | 1.02
GCGGGTATGA | 0.964
GCGAAACAGG | 1.11
ACTACCCTCG | 1.18
CATTTAGAGG | 1.01
ACGGAAATTT | 1.02
GGTGCAGTGT | 1.05
CGAATTAGAA | 0.982
GATGATGGAG | 1.02
TTATCGATAG | 0.985
TATATGAGAT | 1.01
AGTTTGGTGT | 0.997
TGGGGATTCT | 0.976
CGCTTATTAA | 1.07
TCCTGGTGAT | 1.22
AAGAAGGGAT | 0.953
AGAGACACGG | 1.03
GGGACCTTTG | 0.994
TCATTGATCG | 0.987
CGCACGGGGG | 1.01
GGTTGGGATG | 0.951
ACGGGCTTTT | 1.01
GGGAAGATTG | 0.966
AGCATATCGT | 1.04
CTGGTGGGAG | 0.986
TAAGCGGGCT | 0.973
AGAGGCTGAA | 1
ATCAAAAGAT | 0.981

---

System: ATP;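 further: ATP exposure 15 min at 22 °C before imaging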
measurement-protocol: switch fluorescence ratio, 500 uM ATP over buffer (Cy3 cluster intensity, sum of 5 cycles each) (fold (ratio)); higher = stronger signal-on switching upon ATP binding; sequences stand for … in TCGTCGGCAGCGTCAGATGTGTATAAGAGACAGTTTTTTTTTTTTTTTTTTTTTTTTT…TC
condition-set: aptamer strand: ATP DNA aptamer (quencher-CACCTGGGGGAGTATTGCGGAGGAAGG + anchor), 100 nM annealed; ATP concentration: 500 uM
I would appreciate it if you labelled entries True when switch fluorescence ratio is 1 or higher, otherwise False.

sequence-code | class-name
GCGATGGTCG | False
TAGGTCAATC | True
GGGACATAGT | False
TTTTTTCCGG | True

---

Property: switch fluorescence ratio; scope: individual sequences
System: ATP;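 further: ATP exposure 15 min at 22 °C before imaging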
measurement-protocol: switch fluorescence ratio, 500 uM ATP over buffer (Cy3 cluster intensity, sum of 5 cycles each) (fold (ratio)); higher = stronger signal-on switching upon ATP binding; sequences stand for … in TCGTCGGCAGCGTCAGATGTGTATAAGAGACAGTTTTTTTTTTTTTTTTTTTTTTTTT…TC
condition-set: aptamer strand: ATP DNA aptamer (quencher-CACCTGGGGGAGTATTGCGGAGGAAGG + anchor), 100 nM annealed; ATP concentration: 500 uM
observation-type: switch fluorescence ratio

sequence-code | obs-value
ATAGTGAGCG | 1.01
AGTGCGGGCG | 0.99
GGCATAATTT | 1.02
GTATTGGGGC | 0.981
TCGTGCTTTG | 1.01
TTGAGTACGT | 0.992
GTCACCCTTT | 1.01
TGGCCCGGGA | 0.988
CAGGAGTCGT | 1
ACAAAGAGTC | 0.993
TGAAATTTAG | 1.01
AGAGATTTAT | 0.988
TAATCTAGAA | 1.02
GCAGGGTTTC | 0.997
CGGTCTTACT | 1.02
CGGCTCTTTG | 0.985

---

Tested on: ATP;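 further: ATP exposure 15 min at 22 °C before imaging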
measurement-protocol: switch fluorescence ratio, 500 uM ATP over buffer (Cy3 cluster intensity, sum of 5 cycles each) (fold (ratio)); higher = stronger signal-on switching upon ATP binding; sequences stand for … in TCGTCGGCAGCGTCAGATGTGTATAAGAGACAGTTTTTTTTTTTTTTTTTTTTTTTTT…TC
condition-set: aptamer strand: ATP DNA aptamer (quencher-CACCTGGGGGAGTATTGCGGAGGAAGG + anchor), 100 nM annealed; ATP concentration: 500 uM
Property: switch fluorescence ratio; scope: individual sequences

sequence-code | switch fluorescence ratio
CGTTAGCGGG | 1
GGGAAGAGTA | 1
GTTTGCGGCA | 1.01
CTGAATTGGG | 0.999
GCTATAGTGT | 0.992
GATGTTATTA | 0.979
ATGGGTCACG | 0.987
TGAGTCCCGG | 1
TTAATTATCT | 1.01
AGCGGCCTG | 1.01

---

Property: switch fluorescence ratio; scope: individual sequences
Test system: ATP;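 further: ATP exposure 15 min at 22 °C before imaging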
measurement-protocol: switch fluorescence ratio, 500 uM ATP over buffer (Cy3 cluster intensity, sum of 5 cycles each) (fold (ratio)); higher = stronger signal-on switching upon ATP binding; sequences stand for … in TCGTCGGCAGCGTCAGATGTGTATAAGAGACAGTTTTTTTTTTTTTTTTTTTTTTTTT…TC
condition-set: aptamer strand: ATP DNA aptamer (quencher-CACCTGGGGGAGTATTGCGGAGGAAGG + anchor), 100 nM annealed; ATP concentration: 500 uM
observation-type: switch fluorescence ratio

sequence-code | obs-value
GCGGGCTTCA | 1.01
ACGTTGGATT | 1.01
GCGAGAAATC | 1.08
AGGGAGAAAC | 0.984
TAAAATATGG | 1.06
GGGTGGGGG | 1.01

---

Test system: ATP;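 further: ATP exposure 15 min at 22 °C before imaging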
measurement-protocol: switch fluorescence ratio, 500 uM ATP over buffer (Cy3 cluster intensity, sum of 5 cycles each) (fold (ratio)); higher = stronger signal-on switching upon ATP binding; sequences stand for … in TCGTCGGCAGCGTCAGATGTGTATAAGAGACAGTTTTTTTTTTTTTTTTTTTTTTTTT…TC
condition-set: aptamer strand: ATP DNA aptamer (quencher-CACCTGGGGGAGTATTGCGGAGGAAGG + anchor), 100 nM annealed; ATP concentration: 500 uM
Property: switch fluorescence ratio; scope: individual sequences

sequence-code | switch fluorescence ratio
TTGAAAAGAT | 1.05
TTTTTAAGAC | 1.08
TTTATACCGC | 1.13
GGTTTTTAAG | 0.995
GCCAAAGCGG | 0.997
GCAAAGTGGA | 0.977
CGTTGTTGAA | 0.968

---

Tested on: ATP;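 further: ATP exposure 15 min at 22 °C before imaging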
measurement-protocol: switch fluorescence ratio, 500 uM ATP over buffer (Cy3 cluster intensity, sum of 5 cycles each) (fold (ratio)); higher = stronger signal-on switching upon ATP binding; sequences stand for … in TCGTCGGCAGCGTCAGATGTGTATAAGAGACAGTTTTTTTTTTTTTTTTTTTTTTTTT…TC
condition-set: aptamer strand: ATP DNA aptamer (quencher-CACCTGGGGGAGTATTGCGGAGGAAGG + anchor), 100 nM annealed; ATP concentration: 500 uM
Property: switch fluorescence ratio; scope: individual sequences
observation-type: switch fluorescence ratio

sequence-code | obs-value
ACTGGGGTAG | 1.02
GGCGAAAAGG | 0.993
CTTTATTTAG | 0.997
GATCGGGACT | 0.983
ACAGGCGTCA | 1.02
TTGGATATTT | 1
AATACGTTAG | 1.01
GGGGTATGGT | 1
AAAGTATCTT | 1.02
TTGTGCTTAA | 0.989
GATCAATTAA | 0.994
CGGACCGGAA | 1.01
GCTATAGGGG | 1.02
CTTCTGGGGA | 0.993
TTGAAAATGG | 0.992
TTGGTTGTTT | 1
TTTTGAGAAA | 0.99

This collection of values is drawn from the supplement of paper PMC10126150.
